Listed here are compounds together with their documented viability at 20 µM.
- System: H2O2-stimulated PC 12 cell lines
- Assay Text: Protection against H2O2-induced oxidative damage (CCK-8)
- Assay type: cell-based, rat
- Test Context: Rattus norvegicus, PC-12, Dose 20 μM; H2O2-induced oxidative damage, PC 12; H2O2 group 49.69 ± 1.37, control 100
- Method: PC 12 cells were seeded in 96-well plates at a density of 8000 cells/well and incubated overnight. […] After incubating under the same conditions for 24 h, 10 μL CCK-8 solution was added to each well. After 2 h incubation, the absorbance of each well was measured at 450 nm using a microplated reader (Multiskan MK-3, Thermo, Waltham, MA, USA).

>  <Compound>
COc1cc(/C=C/C(=O)CC(=O)/C=C/c2ccc(OC)c(OC)c2OC)cc(CN(C)C)c1O

>  <System>
H2O2-stimulated PC 12 cell lines

>  <viability at 20 µM / %>
94.9

$$$$
>  <Compound>
COc1cc(/C=C/C(=O)CC(=O)/C=C/c2c(OC)cc(O)cc2OC)cc(CN(C)C)c1O [Compound 14a]

>  <System>
H2O2-stimulated PC 12 cell lines

>  <viability at 20 µM / %>
81.9

$$$$
>  <Compound>
COc1cc(/C=C/C(=O)CC(=O)/C=C/c2cc(C)c(O)cc2C)cc(CN(C)C)c1O [Compound 12a]

>  <System>
H2O2-stimulated PC 12 cell lines

>  <viability at 20 µM / %>
88.1

$$$$
>  <Compound>
COc1cc(/C=C/C(=O)CC(=O)/C=C/c2cc(C)c(O)c(C)c2)cc(CN(C)C)c1O

>  <System>
H2O2-stimulated PC 12 cell lines

>  <viability at 20 µM / %>
81.7

$$$$

* * *

- Test system: H2O2-stimulated PC 12 cell lines
- Assay Text: Protection against H2O2-induced oxidative damage (CCK-8)
- Assay type: cell-based, rat
- Test Context: Dose 5 μM; H2O2-induced oxidative damage, PC 12; H2O2 group 49.69 ± 1.37, control 100; in % (unit assumed)
- Procedure: PC 12 cells were seeded in 96-well plates at a density of 8000 cells/well and incubated overnight. […] After incubating under the same conditions for 24 h, 10 μL CCK-8 solution was added to each well. After 2 h incubation, the absorbance of each well was measured at 450 nm using a microplated reader (Multiskan MK-3, Thermo, Waltham, MA, USA).
Criterion met if Cell viability is below 60. Criterion not met if not; exact matches included in Criterion not met.

>  <Smiles Structure>
COc1cc(O)ccc1/C=C/C(=O)CC(=O)/C=C/c1cc(CN(C)C)c(O)c(OC)c1

>  <System>
H2O2-stimulated PC 12 cell lines

>  <Class>
Criterion not met

$$$$
>  <Smiles Structure>
CCOc1cc(/C=C/C(=O)CC(=O)/C=C/c2cc(CN(C)C)c(O)c(OC)c2)ccc1O

>  <System>
H2O2-stimulated PC 12 cell lines

>  <Class>
Criterion not met

$$$$
>  <Smiles Structure>
COc1cc(/C=C/C(=O)CC(=O)/C=C/c2cc(OC)c(O)c(OC)c2)cc(CN(C)C)c1O

>  <System>
H2O2-stimulated PC 12 cell lines

>  <Class>
Criterion met

$$$$
>  <Smiles Structure>
COc1ccc(/C=C/C(=O)CC(=O)/C=C/c2cc(CN(C)C)c(O)c(OC)c2)cc1O

>  <System>
H2O2-stimulated PC 12 cell lines

>  <Class>
Criterion not met

$$$$
>  <Smiles Structure>
COc1cc(/C=C/C(=O)CC(=O)/C=C/c2ccc(O)cc2)cc(CN(C)C)c1O

>  <System>
H2O2-stimulated PC 12 cell lines

>  <Class>
Criterion met

$$$$
>  <Smiles Structure>
COc1cc(/C=C/C(=O)CC(=O)/C=C/c2cc(C)c(O)c(C)c2)cc(CN(C)C)c1O

>  <System>
H2O2-stimulated PC 12 cell lines

>  <Class>
Criterion not met

$$$$
>  <Smiles Structure>
COc1ccc(/C=C/C(=O)CC(=O)/C=C/c2cc(CN(C)C)c(O)c(OC)c2)cc1OC

>  <System>
H2O2-stimulated PC 12 cell lines

>  <Class>
Criterion not met

$$$$
>  <Smiles Structure>
COc1cc(/C=C/C(=O)CC(=O)/C=C/c2ccc(O)c(Cl)c2)cc(CN(C)C)c1O

>  <System>
H2O2-stimulated PC 12 cell lines

>  <Class>
Criterion met

$$$$
>  <Smiles Structure>
COc1cc(/C=C/C(=O)CC(=O)/C=C/c2ccc(O)cc2F)cc(CN(C)C)c1O

>  <System>
H2O2-stimulated PC 12 cell lines

>  <Class>
Criterion not met

$$$$
>  <Smiles Structure>
COc1cc(/C=C/C(=O)CC(=O)/C=C/c2c(C)cc(O)cc2C)cc(CN(C)C)c1O

>  <System>
H2O2-stimulated PC 12 cell lines

>  <Class>
Criterion not met

$$$$

* * *

- Test system: PC 12 cell lines
- Assay Text: Radiation protection in vitro (CCK-8)
- Type: cell-based, rat
- Test Context: Dose 10 μM; radiation 8.0 Gy, PC 12; radiation group 50.22 ± 1.08; in % (unit assumed)
- Description: The rat adrenal pheochromocytoma cells (PC 12) were used for in vitro studies. A Cell Counting Kit-8 (CCK-8, Applygen Technologies Co., Ltd., Beijing, China) assay was used to determine cell viability. […] Cells were irradiated with dose of 8.0 Gy at a dose rate of 0.8 Gy/min. Then, 10 μL CCK-8 solution was added to all the wells. After 4 h incubation, the absorbance at 450 nm of each well was measured in a multiscan photometer.
Listed here are compounds together with their documented Cell viability.

>  <Compound>
COc1cc(/C=C/C(=O)CC(=O)/C=C/c2cc(OC)c(O)c(OC)c2)cc(CN(C)C)c1O

>  <Cell viability>
52.89 ± 2.05

$$$$
>  <Compound>
COc1cc(/C=C/C(=O)CC(=O)/C=C/c2ccc(O)cc2C)cc(CN(C)C)c1O

>  <Cell viability>
51.85 ± 2.04

$$$$
>  <Compound>
COc1cc(/C=C/C(=O)CC(=O)/C=C/c2cc(C)c(O)c(C)c2)cc(CN(C)C)c1O

>  <Cell viability>
55.23 ± 1.26

$$$$
>  <Compound>
COc1cc(/C=C/C(=O)CC(=O)/C=C/c2c(C)cc(O)cc2C)cc(CN(C)C)c1O [Compound 13a]

>  <Cell viability>
75.50 ± 1.73

$$$$
>  <Compound>
COc1cc(/C=C/C(=O)CC(=O)/C=C/c2cc(C)c(O)cc2C)cc(CN(C)C)c1O [Compound 12a]

>  <Cell viability>
63.19 ± 1.90

$$$$
>  <Compound>
COc1cc(/C=C/C(=O)CC(=O)/C=C/c2ccc(O)cc2)cc(CN(C)C)c1O [Compound 10a]

>  <Cell viability>
67.94 ± 4.69

$$$$
>  <Compound>
COc1cc(/C=C/C(=O)CC(=O)/C=C/c2ccc(OC)c(OC)c2OC)cc(CN(C)C)c1O

>  <Cell viability>
62.18 ± 1.03

$$$$
>  <Compound>
COc1ccc(/C=C/C(=O)CC(=O)/C=C/c2cc(CN(C)C)c(O)c(OC)c2)cc1OC

>  <Cell viability>
64.93 ± 4.67

$$$$

* * *

- Test system: PC 12 cell lines
- Assay Text: Radiation protection in vitro (CCK-8)
- Type: cell-based, rat
- Test Context: Rattus norvegicus, PC-12, Dose 20 μM; radiation 8.0 Gy, PC 12; radiation group 50.22 ± 1.08
Listed here are compounds together with their documented viability at 20 µM.

>  <Compound>
COc1cc(/C=C/C(=O)CC(=O)/C=C/c2ccc(O)c(Cl)c2)cc(CN(C)C)c1O

>  <viability at 20 µM>
75.7%

$$$$
>  <Compound>
COc1cc(/C=C/C(=O)CC(=O)/C=C/c2ccc(O)c(OC)c2)ccc1O [Curcumin, curcumin, reference compound]

>  <viability at 20 µM>
75.5%

$$$$
>  <Compound>
COc1cc(/C=C/C(=O)CC(=O)/C=C/c2ccc(O)cc2C)cc(CN(C)C)c1O

>  <viability at 20 µM>
69.1%

$$$$
>  <Compound>
COc1ccc(/C=C/C(=O)CC(=O)/C=C/c2cc(CN(C)C)c(O)c(OC)c2)cc1O

>  <viability at 20 µM>
94.2%

$$$$
>  <Compound>
COc1cc(/C=C/C(=O)CC(=O)/C=C/c2ccc(O)cc2)cc(CN(C)C)c1O

>  <viability at 20 µM>
79.3%

$$$$
>  <Compound>
COc1cc(/C=C/C(=O)CC(=O)/C=C/c2c(C)cc(O)cc2C)cc(CN(C)C)c1O

>  <viability at 20 µM>
87.4%

$$$$
>  <Compound>
COc1cc(/C=C/C(=O)CC(=O)/C=C/c2cc(C)c(O)cc2C)cc(CN(C)C)c1O

>  <viability at 20 µM>
76.8%

$$$$
>  <Compound>
COc1cc(/C=C/C(=O)CC(=O)/C=C/c2cc(CN(C)C)c(O)c(OC)c2)ccc1O

>  <viability at 20 µM>
77%

$$$$
